- assayedSystem: DgcA (CC3285) diguanylate cyclase (Caulobacter crescentus, UniProt Q9A3B9)
- assayOverview: FRET-based DGC activity assay, dose-response
- Type: biochemical
- condition: IC50 ± SD, Table 3; negative and silent allosteric modulators
metricName: pIC50
The read-out pIC50 is expressed as -log10 of concentration in moles per litre.

Please report pIC50 for the following molecule: Cc1ccc(C)c(OCCCC(=O)Nc2ccc(N3CCOCC3)cc2)c1 [Compound 2]
5.19

----------
- assayedSystem: DgcA (CC3285) diguanylate cyclase (Caulobacter crescentus)
- assayOverview: FRET-based DGC activity assay, dose-response
- Assay type: biochemical
- condition: compound saturating concentration
metricName: remaining DGC activity of the enzyme-inhibitor-substrate complex (%)
Could you give me the number in %? Just the number is fine.

Kindly indicate its recorded remaining DGC activity of the enzyme-inhibitor-substrate complex. Item: O=C(OCC(=O)N1CCCC1=O)c1ccc2occc2c1
92.2

Indicate the recorded remaining DGC activity of the enzyme-inhibitor-substrate complex value for this compound: CN(C)c1ccc(C(=O)OCC(=O)N2CCCC2=O)cc1
176

Note remaining DGC activity of the enzyme-inhibitor-substrate complex for the compound shown: O=C(OCC(=O)N1CCCC1=O)c1ccc2ncsc2c1
1.4

These entries and their values trace back to paper PMC6509406.
